Taken from ChEMBL document CHEMBL1201862.

- Test system: MDA-MB-231
- test method notes: NCI tumour cell line growth inhibition, 48 h
The source made the active and inactive calls. Cut-off read from the data, not from the text of the source: active = GI50 up to about 1.1 µM and inactive = higher.
Outcome codes: 1 (yes) (active), 0 (no) (inactive)

molecule=CCOC(=O)c1sc2c(c1OC(=O)c1ccccc1)c(=O)n(-c1ccccc1)c(=S)n2-c1ccccc1 qualitative_label="0 (no)"
molecule=COc1cccc(CCNc2c(C#N)c3n(c4ccccc4[n+]3C)c3ncccc23)c1 qualitative_label="0 (no)"
molecule="COc1ccc(C2SC(=N)Nc3c2c(C)nn3C(=O)Cc2ccccc2)cc1 (stereo not drawn)" qualitative_label="0 (no)"
molecule=Cc1nc(O)nc(N/N=C/c2c3ccccc3c(Cl)c3ccccc23)c1C(=O)Nc1ccc(Cl)cc1 qualitative_label="0 (no)"
molecule="CON(C)C(=O)C1CCCO1 (stereo not drawn)" qualitative_label="0 (no)"
molecule=CC12c3c4cc(Br)cc3Oc3cc(Br)cc(c31)Oc1cc(Br)cc(c12)O4 qualitative_label="0 (no)"
molecule="CCCNC(=O)N(C)C(=O)N1N=C(c2ccccc2)C1c1ccccc1 (stereo not drawn)" qualitative_label="0 (no)"
molecule=CCOC(C/N=c1/nc(N(C)C)ss1)OCC qualitative_label="0 (no)"
molecule=Cc1ccc(Nc2c(C#N)[n+]([O-])c3cc(Cl)ccc3[n+]2[O-])cc1 qualitative_label="0 (no)"
molecule=COc1cccc(Nc2nc(N)nc(N)c2N=O)c1 qualitative_label="0 (no)"
molecule=Cc1ccc(OCCn2cc(Nc3ccccc3)c(=O)n(CCOc3ccc(C)cc3)c2=O)cc1 qualitative_label="0 (no)"
molecule="CCOC(=O)C1=C(N2CCCC2)C(=O)C(C(=O)OCC)C1 (stereo not drawn)" qualitative_label="0 (no)"
molecule=CN(C)c1ccc(-c2ccc(N(C)C)c3n[se]nc23)c2n[se]nc12 qualitative_label="0 (no)"
molecule="COc1ccc(C(=CCC(C)C2CCC3[C@@H]4C(OC(C)=O)CC5CC(OC(C)=O)CC[C@]5(C)C4CC(OC(C)=O)[C@]23C)c2ccc(OC)cc2)cc1 (stereo partly drawn)" qualitative_label="0 (no)"
molecule=O=c1[nH]c(Br)nc2[nH]nnc12 qualitative_label="0 (no)"
molecule=Cc1c(O)c(=O)ccn1CCc1c[nH]c2ccccc12 qualitative_label="1 (yes)"
molecule=O=C1C(=CNc2ccccc2Cl)C(=O)N(c2ccccc2)C(=O)N1c1ccccc1 qualitative_label="0 (no)"
molecule=CC(C)(CC(=O)Nc1ccccc1)C(=O)O qualitative_label="0 (no)"
molecule="O=C1c2cc3c(cc2CC12Cc1ccc4c(c1C2=O)CCCC4)CCCC3 (stereo not drawn)" qualitative_label="0 (no)"
molecule="COC(Cc1ccccc1)NC(C)=O (stereo not drawn)" qualitative_label="0 (no)"
molecule="COC(=O)C1=C(C(=O)OC)C(C(=O)OC)C(C(=O)OC)C(C(=O)OC)(C(=O)OC)C(C(=O)OC)=C1C(=O)OC (stereo not drawn)" qualitative_label="0 (no)"
molecule="C[C@@H]1CC[C@@]2(C)C(C(=O)O)=CCCC2[C@@]1(C)CC(=O)c1ccoc1 (stereo partly drawn)" qualitative_label="0 (no)"
molecule=O=c1ssc(Cl)c1Cl qualitative_label="0 (no)"
molecule=O=C1c2ccccc2-c2c1c1ccccc1c(=O)n2-c1cccnc1 qualitative_label="0 (no)"
molecule="OCC(O)COCn1cc(Cn2ncc3c(NCc4ccccc4)ncnc32)nn1 (stereo not drawn)" qualitative_label="0 (no)"
molecule=C=C(C)[C@@H]1CC[C@]2(C)CC[C@]3(C)[C@H](CC[C@@H]4[C@@]5(C)CC[C@H](O)C(C)(C)[C@@H]5CC[C@]43C)[C@@H]12 qualitative_label="0 (no)"
molecule=COc1cc(CNCc2cc(OC)c(OC)c(OC)c2)cc(OC)c1OC qualitative_label="0 (no)"
molecule=Cc1cccc2c1CC1(Cc3c(C)cccc3C1=O)C2=O qualitative_label="0 (no)"
molecule=CCNC(=S)N/N=C(/C)c1cccc(/C(C)=N\NC(=S)NCC)n1 qualitative_label="0 (no)"
molecule="CCCCCC(O)[C@H]1C(=O)C[C@@H](O[Si](C)(C)C(C)(C)C)[C@@H]1/C=C/CCOCc1ccccc1 (stereo partly drawn)" qualitative_label="0 (no)"
molecule="O=C1CC=C2C3CC4N(CCC45c4ccccc4N1C25)C/C3=C\\CO (stereo not drawn)" qualitative_label="0 (no)"
molecule="N#C[BH2-][n+]1cn(C2CC(O)C(COP(=O)(O)OC3CC(n4c[n+]([BH2-]C#N)c5c(=O)[nH]c(N)nc54)OC3CO)O2)c2nc(N)[nH]c(=O)c21 (stereo not drawn)" qualitative_label="0 (no)"
molecule="Fc1cc2nc3n(c2cc1F)C(c1c(Cl)cccc1Cl)SC3 (stereo not drawn)" qualitative_label="0 (no)"
molecule="CO[C@H]1[C@@H](O)[C@@H](C)O[C@@H](O[C@H]2CC[C@@]3(C)[C@H](CC[C@@H]4[C@@H]3CC[C@]3(C)[C@@H](C5=CC(=O)OC5)CC[C@]43O)C2)[C@@H]1O [ODOROSIDE H]" qualitative_label="1 (yes)"
molecule=CC(C)[C@@H]1CC[C@@H](C)C[C@H]1OC(=O)c1c2n(c3ccccc13)C[C@H]1OC(C)(C)O[C@@H]21 qualitative_label="0 (no)"
molecule=CC1=Nc2ccccc2/C1=C\c1c(C)[nH]c2ccccc12 qualitative_label="0 (no)"
molecule=C[C@H](CCC(=O)O)[C@H]1CC[C@H]2[C@@H]3[C@@H](O)C[C@@H]4C[C@H](O)CC[C@]4(C)[C@H]3CC[C@]12C qualitative_label="0 (no)"
molecule=CSc1c(CC(=O)Nc2ccc(Cl)cc2)n(Cc2ccccc2)c2ccccc12 qualitative_label="0 (no)"
